Hey, just so you know, these numbers are from patent US6831199B1.

- target_under_test: Human fibrinogen receptor (αIIbβ3) (Homo sapiens, UniProt P05106+P08514)
- Construct: Human fibrinogen receptor (αIIbβ3) was purified from outdated platelets; from tissue; host or cells: outdated human platelets
- protocol_text: Purified IIb/IIIa receptor assay (solid phase receptor assay, competition with biotinylated vitronectin)
- Type: binding
- condition_set: read-out: IIb/IIIa IC50
Counter-ions that a name gives are not always drawn.
measure: IC50

INSERT INTO results (compound, endpoint_value) VALUES
  ('N=C(N)Nc1cccc(C(=O)NCC(=O)NC(CC(=O)O)c2cc(Br)cc(Br)c2O)c1 (racemic) [Example 227, trifluoroacetate salt, monohydrate]', '2640 nM'),
  ('N=C(N)Nc1cccc(C(=O)NCC(=O)NC(CC(=O)O)c2cc(Cl)c(O)c(Cl)c2)c1 (stereo not shown) [Example 277, trifluoroacetate salt]', '198 nM'),
  ('NC(=O)Nc1cccc(C(=O)NCC(=O)NC(CC(=O)O)c2cccnc2)c1 (stereo not shown) [Example 46, hydrochloride salt]', '1680 nM'),
  ('NC(=S)Nc1cccc(C(=O)NCC(=O)NC(CC(=O)O)c2cc(Cl)cc(Cl)c2)c1 (racemic)', '22000 nM'),
  ('N=C(N)Nc1cccc(C(=O)NCC(=O)NC(CC(=O)O)c2ncc[nH]2)c1 (racemic)', '223 nM'),
  ('O=C(O)CC(NC(=O)CNC(=O)c1cccc(NC(=O)NCc2ccccc2)c1)c1ccc2c(c1)OCO2 (stereo not shown)', '420 nM'),
  ('N=C(N)Nc1cccc(C(=O)NCC(=O)NC(CC(=O)O)c2cc(Cl)cc(Br)c2)c1 (racemic) [Example 214, trifluoroacetate salt]', '454 nM');

====

- target_under_test: Human vitronectin receptor (αvβ3) (Homo sapiens, UniProt P05106+P06756)
- Construct: Human vitronectin receptor (αvβ3) was purified from human placenta; from tissue; host or cells: human placenta
- protocol_text: Vitronectin adhesion assay (solid phase receptor assay, competition with biotinylated vitronectin)
- Type: binding
- condition_set: read-out: AvB3 IC50
Counter-ions that a name gives are not always drawn.
measure: IC50 (nM)

INSERT INTO assay_data (compound, target_under_test, measure, u, endpoint_value) VALUES
  ('O=C(O)CC(NC(=O)CNC(=O)c1cccc(NC2=NCCCN2)c1)c1cc(Cl)cc(Cl)c1 (racemic) [Example 200, trifluoroacetate salt]', 'Human vitronectin receptor (αvβ3) (Homo sapiens, UniProt P05106+P06756)', 'IC50', 'nM', 0.48),
  ('N=C(N)Nc1cccc(C(=O)NCC(=O)NC(CC(=O)O)c2cc(Br)cc(Cl)c2O)c1 (stereo not shown) [Example 265, trifluoroacetate salt]', 'Human vitronectin receptor (αvβ3) (Homo sapiens, UniProt P05106+P06756)', 'IC50', 'nM', 6.19),
  ('N=C(N)Nc1cc(C(=O)O)cc(C(=O)NCC(=O)NC(CC(=O)O)c2cccnc2)c1 (stereo not shown)', 'Human vitronectin receptor (αvβ3) (Homo sapiens, UniProt P05106+P06756)', 'IC50', 'nM', 0.9),
  ('N=C(N)Nc1ccc(O)c(C(=O)NCC(=O)NC(CC(=O)O)c2cc(Cl)cc(Cl)c2)c1 (stereo not shown) [Example 279, trifluoroacetate salt]', 'Human vitronectin receptor (αvβ3) (Homo sapiens, UniProt P05106+P06756)', 'IC50', 'nM', 7.12),
  ('N=C(N)Nc1cccc(C(=O)NCC(=O)NC(CC(=O)O)c2cc(N)ccc2O)c1 (racemic) [Example 234, monohydrate]', 'Human vitronectin receptor (αvβ3) (Homo sapiens, UniProt P05106+P06756)', 'IC50', 'nM', 89.3),
  ('N=C(N)Nc1cccc(C(=O)NCC(=O)NC(CC(=O)O)C2CCCCC2)c1 (racemic) [Example 229, trifluoroacetate salt, monohydrate]', 'Human vitronectin receptor (αvβ3) (Homo sapiens, UniProt P05106+P06756)', 'IC50', 'nM', 39.1),
  ('N=C(N)Nc1ccc(Cl)c(C(=O)NCC(=O)NC(CC(=O)O)c2ccccc2)c1 (stereo not shown)', 'Human vitronectin receptor (αvβ3) (Homo sapiens, UniProt P05106+P06756)', 'IC50', 'nM', 5.05);

====

- target_under_test: Human fibrinogen receptor (αIIbβ3) (Homo sapiens, UniProt P05106+P08514)
- Construct: Human fibrinogen receptor (αIIbβ3) was purified from outdated platelets; from tissue; host or cells: outdated human platelets
- protocol_text: Purified IIb/IIIa receptor assay (solid phase receptor assay, competition with biotinylated vitronectin)
- Type: binding
- condition_set: read-out: IIb/IIIa IC50
pIC50: −log10 of the molar value. Where a name gives a salt, the structure may show the parent alone.
Output rule met for pIC50 not less than 6; output rule not met otherwise.

INSERT INTO results (molecule, qualitative_label) VALUES
  ('O=C(O)CC(NC(=O)CNC(=O)c1cccc(NC2=NCCC2)c1)c1cccnc1 (stereo not shown) [Example 17]', 'rule met'),
  ('C#C[C@H](CC(=O)O)NC(=O)CNC(=O)c1cccc(NC(=N)N)c1 [Example 69, trifluoroacetate salt]', 'rule met'),
  ('CCN/C(=N\C#N)Nc1cccc(C(=O)NCC(=O)NC(CC(=O)O)c2ccccc2)c1 (stereo not shown) [Example 139]', 'rule not met'),
  ('Cc1ccc(SCCC(CC(=O)O)NC(=O)CNC(=O)c2cccc(NC(=N)N)c2)cc1 (racemic) [Example 66, trifluoroacetate salt]', 'rule met'),
  ('N=C(N)Nc1ccc(O)c(C(=O)NCC(=O)NC(CC(=O)O)c2cc(Cl)cc(Cl)c2)c1 (stereo not shown) [Example 279, trifluoroacetate salt]', 'rule met');

====

- target_under_test: Human fibrinogen receptor (αIIbβ3) (Homo sapiens, UniProt P05106+P08514)
- Construct: Human fibrinogen receptor (αIIbβ3) was purified from outdated platelets; from tissue; host or cells: outdated human platelets
- protocol_text: Purified IIb/IIIa receptor assay (solid phase receptor assay, competition with biotinylated vitronectin)
- Format: binding
- condition_set: read-out: IIb/IIIa IC50
Structures can show the parent of a compound that is named as a salt.
Measured IC50, listed per entry for reference.
measure: IC50

INSERT INTO assay_data (compound, measure, endpoint_value) VALUES
  ('N=C(N)Nc1cccc(C(=O)NCC(=O)NC(CC(=O)O)c2ccc3c(c2)Cc2ccccc2-3)c1 (racemic) [Example 224, trifluoroacetate salt]', 'IC50', '0.0259 µM'),
  ('O=C(O)CC(NC(=O)CNC(=O)c1cccc(NC2=NCCCCC2)c1)c1cc(Cl)cc(Cl)c1 (racemic) [Example 189, trifluoroacetate salt]', 'IC50', '1.98 µM'),
  ('O=C(O)CC(NC(=O)CNC(=O)c1cccc(NC(=O)NCc2nc3ccccc3[nH]2)c1)c1cc(Cl)cc(Cl)c1 (stereo not drawn) [Example 272, trifluoroacetate salt]', 'IC50', '8.21 µM');

====

- target_under_test: Human vitronectin receptor (αvβ3) (Homo sapiens, UniProt P05106+P06756)
- Construct: Human vitronectin receptor (αvβ3) was purified from human placenta; from tissue; host or cells: human placenta
- protocol_text: Vitronectin adhesion assay (solid phase receptor assay, competition with biotinylated vitronectin)
- Assay type: binding
- condition_set: read-out: AvB3 IC50
pIC50: −log10 of the molar value. Where a name gives a salt, the structure may show the parent alone.
Output yes for pIC50 not less than 8; output no otherwise.

INSERT INTO assay_data (compound, target_under_test, qualitative_label) VALUES
  ('CCOC(=O)CC(NC(=O)CNC(=O)c1cccc(NC(=O)Nc2ccccc2)c1)c1ccc2c(c1)OCO2 (stereo not shown) [Example 123]', 'Human vitronectin receptor (αvβ3) (Homo sapiens, UniProt P05106+P06756)', 'no'),
  ('CCOC(=O)CC(NC(=O)CNC(=O)c1cccc(NC(=N)N)c1)c1cccnc1 (racemic) [Example 1]', 'Human vitronectin receptor (αvβ3) (Homo sapiens, UniProt P05106+P06756)', 'no'),
  ('N=C(N)Nc1cccc(C(=O)NCC(=O)NC(CC(=O)O)c2ccc(F)cc2)c1 (stereo not shown) [Example 363, trifluoroacetate salt]', 'Human vitronectin receptor (αvβ3) (Homo sapiens, UniProt P05106+P06756)', 'yes'),
  ('CC(NC(=O)Nc1cccc(C(=O)NCC(=O)NC(CC(=O)O)c2cccnc2)c1)c1ccccc1 (stereo not shown) [Example 271, trifluoroacetate salt]', 'Human vitronectin receptor (αvβ3) (Homo sapiens, UniProt P05106+P06756)', 'no');

====

- target_under_test: Human vitronectin receptor (αvβ3) (Homo sapiens, UniProt P05106+P06756)
- Construct: Human vitronectin receptor (αvβ3) was purified from human placenta; from tissue; host or cells: human placenta
- protocol_text: Vitronectin adhesion assay (solid phase receptor assay, competition with biotinylated vitronectin)
- Assay type: binding
- condition_set: read-out: AvB3 IC50
pIC50: −log10 of the molar value. Structures can show the parent of a compound that is named as a salt.
Output yes for pIC50 not less than 8; output no otherwise.

INSERT INTO measurements (compound, qualitative_label) VALUES
  ('N=C(N)Nc1cccc(C(=O)NCC(=O)NC(CC(=O)O)c2ccc(Cl)s2)c1 (stereo not drawn) [251(C), trifluoroacetate salt]', 'yes'),
  ('N=C(N)Nc1cc(C(=O)NCC(=O)NC(CC(=O)O)c2cc(Cl)cc(Br)c2)cc(C(F)(F)F)c1 (racemic) [Example 216, trifluoroacetate salt]', 'yes'),
  ('CCOC(=O)CC(NC(=O)CNC(=O)c1cccc(NC(=N)N)c1)c1ccoc1 (racemic) [Example 51, trifluoroacetate salt]', 'no'),
  ('C#C[C@H](CC(=O)O)NC(=O)CNC(=O)c1cccc(N/C(N)=N\C(N)=O)c1 [Example 171, trifluoroacetate salt, hydrate]', 'yes'),
  ('O=C(O)CC(NC(=O)CNC(=O)c1cccc(NC(=O)Nc2ccccc2)c1)c1cccnc1 (stereo not drawn) [Example 108, trifluoroacetate salt]', 'no');
